Reference source: patent US20200002414A1

Target: T1, human Ror2 (human, UniProt Q01974 34-403, limits assumed)
T1 construct: also called hROR2; receptor tyrosine kinase-like orphan receptor 2
T1 sequence (Q01974 34-403 limits assumed): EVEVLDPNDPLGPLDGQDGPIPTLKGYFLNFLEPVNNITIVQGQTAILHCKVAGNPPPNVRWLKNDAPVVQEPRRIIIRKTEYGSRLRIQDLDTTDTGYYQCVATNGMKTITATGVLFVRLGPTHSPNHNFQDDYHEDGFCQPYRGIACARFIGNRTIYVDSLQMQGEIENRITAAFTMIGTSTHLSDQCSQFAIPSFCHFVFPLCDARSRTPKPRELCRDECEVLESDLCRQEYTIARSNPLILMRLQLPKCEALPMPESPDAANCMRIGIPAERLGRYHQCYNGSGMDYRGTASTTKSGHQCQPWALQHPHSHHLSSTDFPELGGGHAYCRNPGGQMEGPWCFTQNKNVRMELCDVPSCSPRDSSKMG
Experiment: ELISA, human Ror2, pH 7.4; further: unit not given here
parameter_measured: Affinity ELISA pH 7.4
Please respond with just the number, no unit label.

A selection of reference data follows.
binder	Affinity ELISA pH 7.4
HC-R098H (antibody, V domains shown) VH: EVQLQQSGPELVKPGASVKISCKTSGYTFTEYTMHWMKQSHRKSLEWIGGINTNNGGTGYNQKFKGKATLTVDKSSSTAYMELRSLTSEDSAVYFCAHGSLYSYGNSYFDYWGQGTLVTVSS VL: QIVLTQSPAIMSASPGEKVTITCSATSSVSYMHWFQQKPGTSPKLWIYGTSNLASGVPARFSGSGSGTSYSLTISRMEAEDAATYYCQQRSSYPFTFGQGTKVEIK	0.353
HC-F029E (antibody, V domains shown) VH: EVQLQQSGPELVKPGASVKISCKTSGYTETEYTMHWMKQSHRKSLEWIGGINTNNGGTGYNQKFKGKATLTVDKSSSTAYMELRSLTSEDSAVYFCARGSLYSYGNSYFDYWGQGTLVTVSS VL: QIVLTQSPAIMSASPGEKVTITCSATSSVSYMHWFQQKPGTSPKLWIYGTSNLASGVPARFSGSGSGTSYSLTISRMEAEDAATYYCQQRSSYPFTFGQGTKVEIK	0.742

Okay, next one:
INPUT: Identify the reported Affinity ELISA pH 7.4 for the following entry. HC-R098Q (antibody, V domains shown) VH: EVQLQQSGPELVKPGASVKISCKTSGYTFTEYTMHWMKQSHRKSLEWIGGINTNNGGTGYNQKFKGKATLTVDKSSSTAYMELRSLTSEDSAVYFCAQGSLYSYGNSYFDYWGQGTLVTVSS VL: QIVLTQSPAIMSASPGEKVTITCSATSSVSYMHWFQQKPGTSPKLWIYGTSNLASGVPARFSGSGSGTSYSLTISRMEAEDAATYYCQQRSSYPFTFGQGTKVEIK
OUTPUT: 0.276
